Where these numbers come from: patent US4567175A

System: platelet aggregation
PROTOCOL_DETAILS: Platelet aggregation-inhibiting activity, collagen-induced aggregation in rat platelet-rich plasma, Born's method (Experiment 5)
Assay type: cell-based, male Sprague-Dawley rats
Design: key: -: less than 10% inhibition of platelet aggregation; +: not less than 10% inhibition of platelet aggregation but said percentage inhibition was lower than that of acetylsalicylic acid (100 μg/ml); ++: platelet aggregation-inhibiting activity at least as strong as that of acetylsalicylic acid (100 μg/ml)
TEST_CONTEXT: final concentration 100 μg/ml, rat PRP, 37° C.

{"columns": ["COMPOUND", "Platelet aggregation-inhibiting activity"],
 "data": [
  ["COc1ccc([C@@H]2Sc3cc(Cl)ccc3N(CCN(C)C)C(=O)[C@@H]2O)cc1.O=C(O)C(=O)O (single isomer, unassigned)", "++"],
  ["CCN(CC)CCN1C(=O)[C@H](OC(C)=O)[C@H](c2ccc(OC)cc2)Sc2cc(Cl)ccc21.O=C(O)C(=O)O (single isomer, unassigned)", "++"],
  ["CCC(=O)O[C@H]1C(=O)N(CCN(C)C)c2ccc(Cl)cc2S[C@H]1c1ccc(OC)cc1.O=C(O)C(=O)O (single isomer, unassigned)", "++"],
  ["COc1ccc([C@@H]2Sc3cc(Cl)ccc3N(CCN(C)C)C(=O)[C@@H]2OC(C)=O)cc1.Cl (racemic)", "++"],
  ["CCCN(C)CCN1C(=O)[C@H](OC(C)=O)[C@H](c2ccc(OC)cc2)Sc2cc(Cl)ccc21.O=C(O)C(=O)O (racemic)", "++"]
]}
